Several reports have described Ki for Tyrosinase (Agaricus bisporus); a selection of those results is presented here.
# Measured Target: Tyrosinase (Agaricus bisporus)
# Sequence (O42713 whole entry): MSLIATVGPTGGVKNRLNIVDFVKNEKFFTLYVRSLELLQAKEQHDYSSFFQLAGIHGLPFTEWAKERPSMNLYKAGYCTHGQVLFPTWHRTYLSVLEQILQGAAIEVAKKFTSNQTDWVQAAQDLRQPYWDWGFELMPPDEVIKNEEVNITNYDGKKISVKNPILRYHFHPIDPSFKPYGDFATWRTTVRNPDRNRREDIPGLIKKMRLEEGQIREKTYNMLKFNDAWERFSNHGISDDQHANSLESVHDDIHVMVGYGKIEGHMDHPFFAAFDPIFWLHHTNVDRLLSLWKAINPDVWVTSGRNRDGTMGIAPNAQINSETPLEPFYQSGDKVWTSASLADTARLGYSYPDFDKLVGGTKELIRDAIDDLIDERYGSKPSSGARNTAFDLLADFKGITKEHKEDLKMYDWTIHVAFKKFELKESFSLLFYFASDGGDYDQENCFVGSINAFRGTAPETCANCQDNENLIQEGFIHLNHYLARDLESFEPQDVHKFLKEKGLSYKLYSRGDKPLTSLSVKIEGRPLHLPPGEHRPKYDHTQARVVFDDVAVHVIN
// return numeric value only (unit: µM, not printed)

# Smiles Record, Display Unit, Ki
rows = [
    ("S=c1[nH]nc(-c2ccc(OCc3ccccc3)cc2)o1", "µM", 1.35),
    ("O=C1/C(=C\\c2ccc(O)cc2O)Cc2ccccc21", "µM", 10.3),
    ("S=c1[nH]nc(-c2ccccc2)o1", "µM", 6.47),
    ("Sc1nnc(-c2ccncc2)o1", "µM", 14.2),
    ("NNC(=O)c1ccc2ccccc2c1", "µM", 99.6),
]

State its Ki on Tyrosinase (Agaricus bisporus): NNC(=O)c1ccc(OCc2ccccc2)cc1
49

State its Ki on Tyrosinase (Agaricus bisporus): O=Cc1cc(Cc2ccc(O)c(C=O)c2)ccc1O
48

State its Ki on Tyrosinase (Agaricus bisporus): O=C(/C=C/c1ccc(O)cc1O)c1c(O)cc(O)cc1O
3.1

State its Ki on Tyrosinase (Agaricus bisporus): Sc1nnc(CCCc2nnc(S)o2)o1
1.9

State its Ki on Tyrosinase (Agaricus bisporus): COc1ccc(OC)c(/C=C/C(=N\O)c2cc3ccccc3cc2O)c1
9.4
